Biological target: T1, biotin-peptide MEDYVNFNFT (human)
T1 peptide: Biotin-MEDYVNFNFT
Experiment: ELISA biotin-peptide; scFv 10 ug/mL; repI
Where no end group is shown, it is not given here. The star is where a group is joined. Biotin = O=C1N[C@H]2[C@H](CS[C@H]2CCCCC(=O)*)N1
Listed next: entries and their corresponding OD450.
Just the number in OD, nothing appended.

Look over these answered cases.
[[record]]
binder = "Comparative antibody 1 (Comp-1) scFv, SEQ ID NO: 10 from WO2023/037125 A1, His-tagged (scFv) scFv: QVQLKESGPGLVQPSQTLSLTCTVSGFSVASYDMHWVRLPPGKGLEWMGIIWANGNTHYNSGLKSRLSISRDTSKSQVFLKMNSLQTEDTAIYFCTRGGFAYWGQGTLVTVSSGGGGSGGGGSGGGGSGGGGSDVVMTQTPVSLSVSLGGQVSISCRSSQSLVHNNGNTYLSWYLQKPGQSPQLLIYKVSNRFSGVSDRFSGSGSGTDFTLKISRVEPDDLGVYYCGQGTQYPTFGGGTKLELKHHHHHH"
recordedvalue = 0.16

[[record]]
binder = "Comparative antibody 3 (Comp-3) scFv, SR_92R (Somovilla-Crespo et al. 2018), His-tagged (scFv) scFv: EVKLEESGGGLVQPGGSMKLSCVASGFTFNKFWMNWVRQSPEKGLEWVAEIRLKSNNYATHYAESVKGRFTISRDDSKSSVYLQMNNLRAEDTGIYYCASDGWFAYWGQGTLVTVSAGGGGSGGGGSGGGGSGGGGSDVVMTQTPLSLPVSLGDQASISCRSSQSLVHSNGNTYLNWCLQRPGQSPKSLIYKVSNRFSGVPDRFSGSGSGTDFTLKISRVEAEDLGVYFCSQSTHFPRTFGGGTKLEIKRHHHHHH"
recordedvalue = 0.1

[[record]]
binder = "CCR9_HUM2 scFv (humanized anti-CCR9 scFv, SEQ ID NO: 17 with C-terminal 6xHis tag) (scFv) scFv: QVQLVQSGAEVKKPGASVKVSCTASGYSFTDYIIYWVKQAHGQSLEWMGYIDPNNYNTRYSQKFQGKVTITVDKSSTSAYMELNSLTSDDTAVYYCARDVYWGQGTTVTVSSGGGGSGGGGSGGGGSGGGGSDVVMTQTPLSLSVTPGQPASISCRSSQSLVHSNGKTYLQWYLQKPGQSPKLLIYKVSNRFSGVPDRFSGSGSGTDFTLKISRVEAEDVGVYFCAQSTHVWTFGGGTKVEIKRAHHHHHH"
recordedvalue = 2.56


// next item, OD450 requested
Memo: Comparative antibody 2 (Comp-2) scFv, 243LO326 (VH SEQ ID NO: 51 and VL SEQ ID NO: 52 of WO 2022/195028 A2), His-tagged (scFv) scFv: QVQLVQSGAEVKKPGASVKVSCKASGYTFTSYWMHWVRQAPGQGLEWIGVIYPGNSDTRYNQKFKGRVTITRDTSASTAYMELSSLRSEDTAVYYCTRDYYSNYVYYYAMDYWGQGTTVTVSSGGGGSGGGGSGGGGSGGGGSDIVMTQTPLSLPVTPGEPASISCRSSQSLVHPNRNTYLHWYLQKPGQSPQLLIYKVSNRFSGVPDRFSGSGSGTDFTLKISRVEAEDVGVYYCSQSTHVPWTFGQGTKLEIKHHHHHH , reported OD450: 0.1
